Where do the numbers come from? From patent US20210324080A1.

Target: T1, CTLA-4-hFc (immunogen A; hFc-labeled CTLA-4 extracellular domain protein) (human, UniProt P16410 36-161)
T1 construct: range 36-161; Made in HEK293 cells, purified on protein A; also called CLTA-4-hFc; CTLA-4 protein; not shown: human IgG Fc fragment (hFc) of the pCpC vector
T1 sequence (looked up): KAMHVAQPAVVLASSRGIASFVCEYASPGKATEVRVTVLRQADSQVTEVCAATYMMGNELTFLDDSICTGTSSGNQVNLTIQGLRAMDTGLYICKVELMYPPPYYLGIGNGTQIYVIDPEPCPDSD
Test: blocking assay, CTLA-4 protein, competitor B7.1
Give measured % Block at 200 nM for each item. Keep answers brief.
Give bare numbers, in %.

// known answers, use as guide
- binder: "40C4C6 fully human CTLA-4 antibody (human IgG1, kappa) (antibody, V domains shown, also called mAb09; mAb009) VH: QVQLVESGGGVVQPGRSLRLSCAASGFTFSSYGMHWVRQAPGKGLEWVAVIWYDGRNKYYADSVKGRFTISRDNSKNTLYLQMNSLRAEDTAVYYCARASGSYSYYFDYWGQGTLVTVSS VL: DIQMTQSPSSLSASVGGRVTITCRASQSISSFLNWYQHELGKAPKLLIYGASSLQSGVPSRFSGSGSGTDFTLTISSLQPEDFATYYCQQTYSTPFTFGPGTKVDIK"
  unit.text: "%"
  % Block at 200 nM: 99.4
- binder: "92C8B6 fully human CTLA-4 antibody (human IgG1, kappa) (antibody, V domains shown, also called mAb42; mAb042) VH: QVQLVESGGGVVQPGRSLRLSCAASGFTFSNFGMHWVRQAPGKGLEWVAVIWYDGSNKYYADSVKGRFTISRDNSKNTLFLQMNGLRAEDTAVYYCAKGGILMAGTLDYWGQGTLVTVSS VL: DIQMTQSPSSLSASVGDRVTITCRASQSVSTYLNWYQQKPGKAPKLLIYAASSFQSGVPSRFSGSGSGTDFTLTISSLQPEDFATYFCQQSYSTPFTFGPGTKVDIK"
  unit.text: "%"
  % Block at 200 nM: 99.3
- binder: "97A8D1 fully human CTLA-4 antibody (human IgG1, kappa) (antibody, V domains shown, also called mAb49; mAb049) VH: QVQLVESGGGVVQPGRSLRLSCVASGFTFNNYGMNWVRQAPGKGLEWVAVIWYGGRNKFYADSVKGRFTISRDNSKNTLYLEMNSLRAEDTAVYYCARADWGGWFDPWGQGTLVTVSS VL: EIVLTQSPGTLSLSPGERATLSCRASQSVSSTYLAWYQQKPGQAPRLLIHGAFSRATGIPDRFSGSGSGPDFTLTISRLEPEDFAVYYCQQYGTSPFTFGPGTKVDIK"
  unit.text: "%"
  % Block at 200 nM: 98.4

Record summary for 31C12F3 fully human CTLA-4 antibody (human IgG1, kappa) (antibody, V domains shown, also called mAb010) VH: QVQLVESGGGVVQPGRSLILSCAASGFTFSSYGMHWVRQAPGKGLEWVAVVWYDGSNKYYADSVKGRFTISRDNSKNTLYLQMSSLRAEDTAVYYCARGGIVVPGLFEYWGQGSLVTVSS VL: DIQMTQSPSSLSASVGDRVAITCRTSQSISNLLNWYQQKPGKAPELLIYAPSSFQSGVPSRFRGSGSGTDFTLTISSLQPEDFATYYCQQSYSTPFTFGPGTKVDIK : reported % Block at 200 nM = 99.3
